- system_tested: recombinant human truncated SHIP1 (tSHIP1) (Homo sapiens)
- Construct: tSHIP1 (SHIP1, residues 397-864) was amplified from pET24TEV-tSHIP1; His tag; made in house; host or cells: E. coli BL21
- Sequence (Q92835 397-864): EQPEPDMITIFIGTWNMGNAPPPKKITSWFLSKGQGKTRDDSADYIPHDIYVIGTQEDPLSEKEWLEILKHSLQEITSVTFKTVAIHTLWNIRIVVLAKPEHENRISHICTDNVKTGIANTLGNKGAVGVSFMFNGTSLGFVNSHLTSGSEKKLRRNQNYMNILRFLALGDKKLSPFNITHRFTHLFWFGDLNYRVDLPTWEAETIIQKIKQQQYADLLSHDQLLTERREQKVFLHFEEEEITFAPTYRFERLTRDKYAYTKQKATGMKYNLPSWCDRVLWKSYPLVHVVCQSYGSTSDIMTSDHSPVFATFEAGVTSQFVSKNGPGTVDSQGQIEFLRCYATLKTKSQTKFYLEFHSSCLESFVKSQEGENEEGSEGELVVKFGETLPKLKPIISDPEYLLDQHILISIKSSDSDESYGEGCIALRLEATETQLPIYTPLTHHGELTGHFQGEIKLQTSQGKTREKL
- protocol_summary: Malachite Green Phosphatase Release Assay (SHIP1 phosphatase activity)
- Type: biochemical
- settings: bis-sulfonamide hybrids; 500 μM
Exercise: state measured Malachite (SHIP1), 500 μM for each of the molecules provided.
Numbers only here, please. The scale is %.

I would be grateful if you could share the reported Malachite (SHIP1), 500 μM for "O=C(CNS(=O)(=O)c1ccccc1C(F)(F)F)Nc1ccc(S(=O)(=O)N2CCCCC2)cc1" . 116

Follow-up entry: "CCCCNS(=O)(=O)c1ccc(NC(=O)[C@@H]2CCCN2S(=O)(=O)c2ccccc2C(F)(F)F)cc1" 91

Follow-up entry: O=C(Nc1ccc(S(=O)(=O)N2CCCCC2)cc1)[C@@H]1CCCN1S(=O)(=O)c1ccc(C(F)(F)F)cc1 (stereo in doubt) 136

Follow-up entry: "Cc1sc(S(=O)(=O)N2CCCCC2)cc1NC(=O)[C@@H]1CCCN1S(=O)(=O)c1ccccc1C(F)(F)F" 158

Follow-up entry: "Cc1sc(S(=O)(=O)N2CCCCC2)cc1NC(=O)[C@@H]1CCCN1S(=O)(=O)c1ccc(C(F)(F)F)cc1" 126

Follow-up entry: "O=C(Nc1ccc(S(=O)(=O)N2CCCCC2)cc1)[C@@H]1CCCN1S(=O)(=O)c1ccccc1C(F)(F)F" 138

Follow-up entry: "CCCCNS(=O)(=O)c1ccc(NC(=O)[C@@H]2CCCN2S(=O)(=O)c2ccc(C(F)(F)F)cc2)cc1" 81

Follow-up entry: "O=C(CNS(=O)(=O)c1ccc(C(F)(F)F)cc1)Nc1ccc(S(=O)(=O)N2CCCCC2)cc1" 74

---

- system_tested: recombinant human truncated SHIP1 (tSHIP1) (Homo sapiens)
- Construct: tSHIP1 (SHIP1, residues 397-864) was amplified from pET24TEV-tSHIP1; His tag; made in house; host or cells: E. coli BL21
- protocol_summary: Malachite Green Phosphatase Release Assay (SHIP1 phosphatase activity)
- Type: biochemical
- settings: 500 μM analog; 100 μM PI(3,4,5)P3-diC8 substrate; normalized to vehicle control (DMSO) = 100%; >100% activation, <100% inhibition
assay_metric: Phosphatase activity in the Malachite Green Assay, analog concentration 500 μM (%)
Numbers only here, please. The scale is %.

I would be grateful if you could share the reported Phosphatase activity in the Malachite Green Assay, analog concentration 500 μM for "Cc1sc(S(=O)(=O)N2CCSCC2)cc1NC(=O)CN" . 107

Follow-up entry: "Cc1sc(S(=O)(=O)N2CCSCC2)cc1NC(=O)CNS(=O)(=O)c1ccccc1" 107

Follow-up entry: "CCN(CC)S(=O)(=O)c1cc(NC(=O)CNS(=O)(=O)c2ccc(F)cc2)c(C)s1" 109

Follow-up entry: "O=C(CNS(=O)(=O)c1ccc(F)cc1)Nc1ccc(S(=O)(=O)N2CCSCC2)cc1" 130
